# Test system: DAF-12 nuclear receptor (Haemonchus contortus)
# assay: hcDAF-12 driven luciferase reporter activation – cell-based, luminescence, HEK293, lit1-tk-luc reporter, primary screen (AID 652067);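 also: 100% = response to 3 µM Δ7-dafachronic acid high control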
# test.conditions: HEK293 hcDAF-12 lit1-tk-luc reporter, at 6.8 µM, stronger effect = higher value, 0% DMSO, 100% Δ7-dafachronic acid
The campaign covered roughly 370,000 compounds. About 5,400 (1.5%) were called active. What follows is part of a selection rich in actives, with near analogues and random picks from the rest.
molecules and their reported activation
Give the quantity in %, number only.

molecule	result.value
COC(=O)[C@H](C(C)C)N1CCc2nnn(Cc3ccc(C)cc3)c2-c2ccccc2S1(=O)=O	-1.76
C/C(=N\Nc1nc2ccccc2[nH]1)c1cccs1	5.49
COC(=O)c1cccc(Cn2ccc3ccc(-c4ccc5ccn(C(=O)C6CCCCC6)c5c4)cc32)c1	2.46
CCCCCCCCNS(=O)(=O)/C=C/c1cc(C)ccc1CNC(=O)OC(C)(C)C	-0.7
Cc1c(C(=O)Nc2ccccn2)oc2ccc(Br)cc12	10.7

[in] What measured activation goes with "O=C(NC1CCCCC1)n1c(=O)oc2cc(S(=O)(=O)N3CCCCC3)ccc21" ?
[out] -1.24

[in] What measured activation goes with "Cn1c(=O)oc2cc(S(=O)(=O)N3CCC(C(=O)Nc4ccc(OC(F)(F)F)cc4)CC3)ccc21" ?
[out] -1.46

[in] What measured activation goes with "C[C@H](C(=O)N(C)c1ccccc1)[C@@H](O)c1ccc(Cl)cc1" ?
[out] -1.63

[in] What measured activation goes with COc1ccc(-c2cc(C(=O)NC(C(=O)O)C(C)C)c(C)o2)cc1OC (stereo unspecified) ?
[out] 1.96

[in] What measured activation goes with "COc1cccc(/C=C(/CC(=O)Nc2ccc(N3CCOCC3)cc2)c2nc3ccccc3s2)c1" ?
[out] 6.15

[in] What measured activation goes with O=C1c2ccccc2C(c2nc3ccccc3[nH]2)N1c1ccccc1 (stereo unspecified) ?
[out] -0.51

[in] What measured activation goes with "O=C(COC(=O)CCc1nc2ccccc2c(=O)[nH]1)Nc1ccc(N2CCOCC2)cc1" ?
[out] -1.31

[in] What measured activation goes with "CCn1c(Cc2ccc(OC)cc2)nnc1SCC(=O)Nc1ccc(N2CCOCC2)cc1" ?
[out] 0.15

====

# Test system: DAF-12 nuclear receptor (Haemonchus contortus)
# assay: hcDAF-12 driven luciferase reporter activation – cell-based, luminescence, HEK293, lit1-tk-luc reporter, primary screen (AID 652067);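 also: 100% = response to 3 µM Δ7-dafachronic acid high control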
# test.conditions: HEK293 hcDAF-12 lit1-tk-luc reporter, at 6.8 µM, 0% DMSO, 100% Δ7-dafachronic acid
The campaign covered roughly 370,000 compounds. About 5,400 (1.5%) were called active.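 Rule for the calls: active = activation above the mean of all tested compounds plus 3 SD (cut at about 5.5% in these data); inactive = the rest.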 For the sample, actives were picked, then their nearest neighbours and some compounds at random.
Respond only with the outcome that fits, drawn from active, inactive

Observe how each entry below is paired with its result.
compound	answer.label
Cc1no[n+]([O-])c1COc1ccccc1/C=C1\NC(=S)NC1=O	inactive
COC(=O)C1=C(C(=O)OC)C2C=C(C(C)C)C1C(=O)C2(C)O (stereo unspecified)	inactive
Fc1ccc(-c2ccc(CNCc3ccccn3)o2)cc1Cl	inactive
COc1ccc(C)cc1NC(=O)CN1c2cccc3cccc(c23)S1(=O)=O	inactive
CN(C(=O)COC(=O)c1cc(-c2ccco2)nc2ccccc12)C1CCS(=O)(=O)C1 (stereo unspecified)	inactive
C#CCOc1ccccc1/C=C1/C(=O)ON=C1C	active
C#CCN([C@H](C(=O)OC)C(C)CC)S(=O)(=O)c1ccccc1Br (stereo partly specified)	inactive
CCc1nc(SCC(=O)Nc2ccccc2OC)n[nH]1	inactive

[in] Tell me the recorded outcome of this test for "Cn1c(SCc2nc3ccccc3s2)nnc1-c1ccc2c(c1)OCO2" .
[out] inactive

[in] Tell me the recorded outcome of this test for "Clc1ccccc1-c1cc(COc2ccc3ccccc3c2)no1" .
[out] inactive

[in] Tell me the recorded outcome of this test for "O=S1(=O)c2ccc(N3CCN(Cc4ccccc4F)CC3)cc2Oc2ccccc2CN1Cc1cn(Cc2ccc(Cl)cc2)nn1" .
[out] inactive

====

compounds and their reported activation
# Test system: DAF-12 nuclear receptor (Haemonchus contortus)
# assay: hcDAF-12 driven luciferase reporter activation – cell-based, luminescence, HEK293, lit1-tk-luc reporter, primary screen (AID 652067);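 also: 100% = response to 3 µM Δ7-dafachronic acid high control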
# test.conditions: HEK293 hcDAF-12 lit1-tk-luc reporter, at 6.8 µM, stronger effect = higher value, 0% DMSO, 100% Δ7-dafachronic acid
Screen size: about 370,000 compounds; about 5,400 (1.5%) were called active. This excerpt belongs to a sample that is enriched for actives.
Give the quantity in %, number only.

Consider the worked cases shown below.
compound	activation (%)
COC(=O)c1cc(S(=O)(=O)N2CCN(C(=O)C3CCCO3)CC2)cn1C (stereo unspecified)	2.12
COc1cccc(-c2nnc(SCCOc3ccc4c(C)cc(=O)oc4c3)o2)c1	0.05
COc1ccc(-c2cc(-c3nnc(SCC(=O)Nc4cccc5ccccc45)n3N)[nH]n2)cc1	0.47
S=c1nccc(-c2cc(Cl)sc2Cl)[nH]1	0.15
COc1ccc(-c2ccc3c(n2)CCCN3S(=O)(=O)c2ccc(C)cc2)cc1	-0.08

Kindly review the next compound as well.
[in] What measured activation goes with "COc1cccc(-n2nc(C(=O)N3CCN(Cc4ccccc4)CC3)c3ccccc3c2=O)c1" ?
[out] -2.27

====

# System: DAF-12 nuclear receptor (Haemonchus contortus)
# assay: hcDAF-12 driven luciferase reporter activation – cell-based, luminescence, HEK293, lit1-tk-luc reporter, primary screen (AID 652067);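 also: 100% = response to 3 µM Δ7-dafachronic acid high control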
# test.conditions: HEK293 hcDAF-12 lit1-tk-luc reporter, at 6.8 µM, stronger effect = higher value, 0% DMSO, 100% Δ7-dafachronic acid
The campaign covered roughly 370,000 compounds. About 5,400 (1.5%) were called active. Shown is part of a subset that was picked to be rich in actives.
compounds and their reported activation
Give the quantity in %, number only.

Consider the worked cases shown below.
compound	activation / %
O=C(CSc1nnc(Cc2ccccc2)n1-c1ccccc1)N1CCOCC1	-0.92
O=S(=O)(c1ccc2c(c1)OCCCO2)N1CCN(S(=O)(=O)c2c(F)cccc2F)CC1	-1.98
COC(=O)C[C@H]1CC[C@H]2[C@H](COc3ccc(NC(=O)C4CC4)cc3C(=O)N2C)O1	0.16
N#Cc1c(NC(=O)c2ccc(N3CCOCC3)c([N+](=O)[O-])c2)sc2c1CCCC2	-0.5
COc1ccc(C(C)(NC(C)=O)c2nc(-c3ccc(S(C)(=O)=O)cc3)cs2)cc1 (stereo not given)	-1.14
Cc1ccccc1NC(=O)Cn1nnc(-c2ccccc2F)n1	1.07
CCCCN1CCN(C(=O)c2ccc3c(c2)NC(=O)C(C)(C)O3)CC1	0.06
Nc1[nH]c(/C=C2/CCCCC2n2[nH]c(=O)n(-c3ccccc3)c2=O)c(Cc2ccccc2)[n+]1Cc1ccccc1 (stereo not given)	-2.89
Cn1c(NC(=O)c2ccccc2)nc2ccccc21	14.3
CCc1cc2c(=O)c(-c3nc4ccccc4n3C)c(CCCC(=O)O)oc2cc1OC(=O)C(C)(C)C	-0.74

[in] Lab request: please report activation under test system DAF-12 nuclear receptor (Haemonchus contortus) for "O=C1CC[C@@]23CCCN2C(=O)CCC[C@H]3[C@H]1Cc1ccccc1"
[out] -0.12

[in] Lab request: please report activation under test system DAF-12 nuclear receptor (Haemonchus contortus) for Cc1nn2c(c1-c1ccccc1)N=C(c1ccco1)CC2c1ccccc1 (stereo not given)
[out] -0.56

[in] Lab request: please report activation under test system DAF-12 nuclear receptor (Haemonchus contortus) for "Cc1cccc(N2Cc3ccccc3C2=NC(=O)c2ccc(Cl)nc2)c1"
[out] 5.83

[in] Lab request: please report activation under test system DAF-12 nuclear receptor (Haemonchus contortus) for "CC1CCN(c2ccc(C(=O)O)cc2NS(=O)(=O)c2ccc(Br)s2)CC1"
[out] 0.68

[in] Lab request: please report activation under test system DAF-12 nuclear receptor (Haemonchus contortus) for "O=C(Cn1c(-c2ccc(Cl)cc2)noc1=O)N1CCN(c2ccccc2F)CC1"
[out] -0.55

[in] Lab request: please report activation under test system DAF-12 nuclear receptor (Haemonchus contortus) for "Cn1c(SCC(=O)N/N=C/c2ccc(O)c(O)c2)nc2ccccc21"
[out] 0.79

====

# Tested on: DAF-12 nuclear receptor (Haemonchus contortus)
# assay: hcDAF-12 driven luciferase reporter activation – cell-based, luminescence, HEK293, lit1-tk-luc reporter, primary screen (AID 652067);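 also: 100% = response to 3 µM Δ7-dafachronic acid high control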
# test.conditions: HEK293 hcDAF-12 lit1-tk-luc reporter, at 6.8 µM, 0% DMSO, 100% Δ7-dafachronic acid
The whole screen tested about 370,000 compounds, of which about 5,400 (1.5%) were called active.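 Rule for the calls: active = activation above the mean of all tested compounds plus 3 SD (cut at about 5.5% in these data); inactive = the rest.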 Only a selection was taken, and actives are over-represented in it overall.
Respond only with the outcome that fits, drawn from active, inactive

Observe how each entry below is paired with its result.
compound	answer.label
CC1CC(C)CN(CCCNC(=O)Cn2ncc3c([nH]c4ccccc43)c2=O)C1 (stereo not drawn)	active
COc1ccc(C2=CN(Cc3ccccc3)C(c3ccc(OC)cc3)CC2=O)cc1 (stereo not drawn)	inactive
C/C(=N\NC(=S)NCc1ccccc1)c1ccc(Cl)cc1	inactive
COCCNC(=O)c1ccccc1-c1nc(-c2ccccc2Cl)no1	inactive
Cc1cnc(NC(=O)c2ccc(Cl)nc2)s1	active

[in] Tell me the recorded outcome of this test for Clc1ccc(C(Cn2ccnc2)OCc2ccsc2Cl)c(Cl)c1 (stereo not drawn) .
[out] inactive

[in] Tell me the recorded outcome of this test for "O=C(NCCc1ccccc1)Oc1ccc(Cl)cc1" .
[out] inactive

[in] Tell me the recorded outcome of this test for "Cc1ccc(-n2c(SCC(=O)Nc3cccc4ccccc34)nnc2-c2ccccn2)cc1" .
[out] inactive

[in] Tell me the recorded outcome of this test for CC(CCc1ccccc1)NC(=O)c1cnc(Cl)c(Cl)c1 (stereo not drawn) .
[out] active

[in] Tell me the recorded outcome of this test for "Cc1ccc(OCc2nc3ccccc3n2C)cc1" .
[out] active

[in] Tell me the recorded outcome of this test for "Cc1ccc(C(=O)Nc2nnc(C3=COCCO3)o2)cc1C" .
[out] inactive

[in] Tell me the recorded outcome of this test for "COc1ccc(CCNC(=O)CSc2nc3c([nH]2)c(=O)n(C)c(=O)n3C)cc1" .
[out] inactive

[in] Tell me the recorded outcome of this test for "COc1ccc(C(=O)Nc2ccnn2C2CCN(Cc3ccncc3)CC2)cc1" .
[out] inactive

[in] Tell me the recorded outcome of this test for "COC(=O)[C@]12C[C@H](CC(=O)NCCCCc3ccccc3)C(=O)N(Cc3ccc4c(c3)OCO4)C1=C[C@H](C(C)(C)C)O[C@@H]2C" .
[out] inactive

[in] Tell me the recorded outcome of this test for "CCOC(=O)c1ccc(-c2ccc3ncnc(N(C)Cc4sccc4C)c3c2)o1" .
[out] inactive

[in] Tell me the recorded outcome of this test for "COc1ccccc1-c1nnc(NC(=O)c2ccc3ncsc3c2)o1" .
[out] active

[in] Tell me the recorded outcome of this test for "COc1cc(SC)ccc1C(=O)Nc1cc(C)ccn1" .
[out] active

[in] Tell me the recorded outcome of this test for "CCc1c(C)nc(SCC(=O)NC2CCCC2)[nH]c1=O" .
[out] inactive

[in] Tell me the recorded outcome of this test for "CCCOc1ccc(C(=O)NCCc2ccccc2)cc1" .
[out] active

[in] Tell me the recorded outcome of this test for COc1cccc(CNC(=O)C2CCCN(c3nc4ccccc4o3)C2)c1OC (stereo not drawn) .
[out] inactive

[in] Tell me the recorded outcome of this test for CC1CCCCN1CCCNC(=O)Cn1ncc2c([nH]c3ccccc32)c1=O (stereo not drawn) .
[out] inactive

[in] Tell me the recorded outcome of this test for "CCOC(=O)[C@]12CCCC=C1N(Cc1ccc(OC)cc1)C(=O)[C@@H]2CC(=O)NCc1cccs1" .
[out] inactive

[in] Tell me the recorded outcome of this test for "C[C@@H]1CN([C@H](C)CO)C(=O)CCCn2cc(nn2)CO[C@H]1CN(C)C(=O)Nc1ccc(N2CCCCC2)cc1" .
[out] inactive
